# Tested target: T1, hCD137-mFc-Avi (human; mouse, UniProt Q07011 24-186, one biotin on the Avi sequence of each monomer (BirA); unbiotinylated in the SPR of Example 5.6)
# T1 construct: Made in-house in HEK293-6E; also called human CD137-mFc-Avi; dimeric human CD137; not shown: mouse IgG2a Fc domain (mIgG2a Fc)
# T1 sequence (Q07011 24-186): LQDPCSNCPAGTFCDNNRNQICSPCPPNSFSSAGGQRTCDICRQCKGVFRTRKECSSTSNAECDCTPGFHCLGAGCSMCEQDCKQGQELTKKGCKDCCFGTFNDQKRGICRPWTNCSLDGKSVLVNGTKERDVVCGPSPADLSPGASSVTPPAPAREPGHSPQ
# Assay protocol: flow cytometry of the yeast-displayed clone, 10 nM dimeric human antigen
Reported property: % APC positive cells

Binder	Reported property	Reported value
FS22-053-011, yeast-displayed clone (designed binder) GQPREPQVYTLPPSRDELNPPYLFSNQVSLTCLVKGFYPSDIAVEWESNGQPENNYKTTPPVLDSDGSFFLYSKLTVDYWRWTDGNVFSCSVMHEALHNHYTQKSLSLSPG	% APC positive cells	> 30%
FS22-053-009, yeast-displayed clone (designed binder) GQPREPQVYTLPPSRDELNPPYLFSNQVSLTCLVKGFYPSDIAVEWESNGQPENNYKTTPPVLDSDGSFFLYSKLTVEHTRWLDGNVFSCSVMHEALHNHYTQKSLSLSPG	% APC positive cells	> 30%
FS22-053-012, yeast-displayed clone (designed binder) GQPREPQVYTLPPSRDELNPPYLFSNQVSLTCLVKGFYPSDIAVEWESNGQPENNYKTTPPVLDSDGSFFLYSKLTVDHMRWLEGNVFSCSVMHEALHNHYTQKSLSLSPG	% APC positive cells	> 30%
FS22-172-001, yeast-displayed clone (designed binder) GQPREPQVYTLPPSRDELPFVMPPYNQVSLTCLVKGFYPSDIAVEWESNGQPENNYKTTPPVLDSDGSFFLYSKLTVGADRWLEGNVFSCSVMHEALHNHYTQKSLSLSPG	% APC positive cells	> 10%
